// reported pKd for each item listed
- measurement target: T1, monkey CD3 epsilon (cynomolgus monkey, UniProt Q95LI5)
- T1 chain: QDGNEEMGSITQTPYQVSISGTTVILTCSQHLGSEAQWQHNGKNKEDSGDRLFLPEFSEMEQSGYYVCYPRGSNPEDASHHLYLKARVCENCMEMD
- assay comment: SPR
pKd: −log10 of the molar value.

binder | pKd
19-26 (antibody, V domains shown) VH: EVKLLESGGGLVQPKGSLKLSCAASGFTFNTYAMNWVRQAPGKGLEWVARIRSKYNNYATYYADSVKDRFTISRDDSQSILYLQMNNLKTEDTAMYYCVRHGNFGNSYISWWAYWGQGTLVTVSA VL: QAVVTQESALTTSPGETVTLTCKSSTGAVTTSNYANWVQEKPDHLFTGLIGGTNLHAPGVPARFSGSLIGDKAALTITGAQTEDEAIYFCALWYSNLWVFGGGTKLTVL | 9.63
19-15 (antibody, V domains shown) VH: EVKLLESGGGLVQPKGSLKLSCAASGFTFNTYAMNWVRQAPGKGLEWVARIRSKYNNYATYYAISVKDRFTISRDDSQSILYLQMNNLKTEDTAMYYCVRHGNFGNSYLSYWAYWGQGTLVTVSA VL: QAVVTQESALTTSPGETVTLTCQSSTGAVTTNNYANWVQEKPDHLFTGLIGGTKQRAPGVPARFSGSLIGDKAALTITGAQTEDEAIYFCVLWYSNLWVFGGGTKLTVL | 9.63
CD3-19 (antibody, V domains shown) VH: EVKLLESGGGLVQPKGSLKLSCAASGFTFNSYAMNWVRQAPGKGLEWVARIRSKYNNYATYYADSVKDRFTISRDDSQSILYLQMNNLKTEDTAMYYCVRHGNFGNSYLSYWAYWGQGTLVTVSA VL: QAVVTQESALTTSPGETVTLTCDSSTGAVTTSNYANWVQEKPDHLFTGLIGGTQRSAPGVPARFSGSLIGDKAALTITGAQTEDEAIYFCVLWYSNLWVFGGGTKLTVL | 9.46
19-37 (antibody, V domains shown) VH: EVKLLESGGGLVQPKGSLKLSCAASGFTFNTYAMNWVRQAPGKGLEWVARIRSKYNNYATYYAISVKDRFTISRDDSQSILYLQMNNLKTEDTAMYYCVRHGNFGNSYISYWAYWGQGTLVTVSA VL: QAVVTQESALTTSPGETVTLTCRSSTGAVTTNNYANWVQEKPDHLFTGLIGGTRLSAPGVPARFSGSLIGDKAALTITGAQTEDEAIYFCVLWYSNLWVFGGGTKLTVL | 11.42

Reference source for all entries: patent US12180280
